Source of measurements: the supplement of paper PMC9170038

# Test system: MS2 coat protein
# Assay Overview: apparent KD of MS2 coat protein, switch ON state; designed switch direction (-1 OFF switch, 1 ON switch): -1; higher = weaker reporter binding
# Condition: FMN input: 0 or 200 uM; Eterna round: R93 (includes R88 designs)
Outcome Measure: apparent KD of MS2 coat protein (nM)
Hi! Could you send only the number? It should be in nM, unit omitted.

Asked: Report apparent KD of MS2 coat protein for CUCAAGUAAGGAUAUAGAAGAAAAGAAGAGAAAGAAAAGAACUAGAAGGUACAUGAGGAUCACCCAUGUAAGAA [EteRNA is fun!]
Given back: 41.6

Asked: Report apparent KD of MS2 coat protein for AAACACGGAGGAUAUACACCAUACAAACCUCUAAACAAAAAACAUGAGGAUCACCCAUGUAGAAGGCCGAACAA [Default title]
Given back: 24.7

Asked: Report apparent KD of MS2 coat protein for AAAAAGGAAGGAUAUACAUGAGGAUCACCCAUGUAAAAAAAAAAAAAGGGAAAAAAAAGUAGAAGGUCCAAAAA [Montuemsaf Djedankhre]
Given back: 33

Okay, now this sequence:
Asked: Report apparent KD of MS2 coat protein for AAAAAACAUGAGGAUCACCCAUGUCAGGAUAUACGAUAAAAAAAAAAAAAAAAAAAAUGUAGAAGGGACAAAAA [Simple 1]
Given back: 60.3

---

# System: K4 kissing-loop RNA reporter
# Assay Overview: apparent KD of K4 kissing-loop reporter; higher = weaker reporter binding
# Condition: Eterna round: R107; input ligand: tryptophan 2.4 mM
Catalogue of apparent KD of K4 kissing-loop reporter values
Hi! Could you send only the number? It should be in nM, unit omitted.

Worked cases, answers included:
Asked: Provide apparent KD of K4 kissing-loop reporter, system K4 kissing-loop RNA reporter, entry AGCAGUGAUGUUGCAUUUAUAAAGACCGAUACCAGUAUCGAUAGAUACCCUUGGCAGCGGAUUUCCGCAACGACUAGGAAACUAG [Ex Theophylline A K4 13]
Given back: 270

Asked: Provide apparent KD of K4 kissing-loop reporter, system K4 kissing-loop RNA reporter, entry AGGGUUUAACACGAUACCAGCCUGGAGGCCAGUGAUGUUGGCCGAUUUGAACAGAAUUAAGGCCCUUGGCAGCGUCUUUAAAACC [Biarat]
Given back: 153

Asked: Provide apparent KD of K4 kissing-loop reporter, system K4 kissing-loop RNA reporter, entry AAAUAGAUCAGUCAACCAGUGAUGUUGGAAGGAGCGUGCGAAAGCACAGGUAGGUCGCCAGAAUAAAAGUGGCUGAUCAAAAUAA
Given back: 214

Asked: Provide apparent KD of K4 kissing-loop reporter, system K4 kissing-loop RNA reporter, entry GAAGGUCAAAGACCUUCGUGCACACCUGAUACCAGUCGCGAAAGCGACCCUUGGCAGCAGGGCAGUGAUGUUGCCAGUGCACAAA [Omei KL Theo A SS A v5]
Given back: 159

Asked: Provide apparent KD of K4 kissing-loop reporter, system K4 kissing-loop RNA reporter, entry AAGCAGUCACUCAAAGCCAUCGAAGAUGGACGAGGACCGGUACGGCCGCCACUCGGAGUGAUGUUCCGAAGACUGCAAAAUAAAA
Given back: 230

Asked: Provide apparent KD of K4 kissing-loop reporter, system K4 kissing-loop RNA reporter, entry GGUAGCAUGGCGGCCGCCACUAAUACUUCGUAGCCUGUAGCCGGCUUCGUAGAGUGAUGUUCUAUUAGGACCGGGCCAUGCUACC
Given back: 493

Asked: Provide apparent KD of K4 kissing-loop reporter, system K4 kissing-loop RNA reporter, entry GGUAGCAUGGCGGCCGCCACUUCGAAUAAGUGAUGUUUAUUUGACUGAGCACCCUAUGCCAUGUGAAGGACCGGGCCAUGCUACC
Given back: 200

Asked: Provide apparent KD of K4 kissing-loop reporter, system K4 kissing-loop RNA reporter, entry UAUCAGAUUACUGAUACCAGUCUAAAGACAGUGAUGUUGUCUGAUCGACCACGAUCAAAGGACCCUUGGCAGCAGUGUACUAUUC [#29 K4 Theophylline B Same State]
Given back: 199

Okay, now this sequence:
Asked: Provide apparent KD of K4 kissing-loop reporter, system K4 kissing-loop RNA reporter, entry AAAAUAAAUCAGUGAUGUUGGUGUCCAGAUACCAGCGACGAAAGUCGCCCUUGGCAGCUGUGGACGUACAAAAUAAGUACGUCCU [MatMod 22 - Jieux - Same State - Theophylline A];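 also: bound reporter read as fluorescence of individual clusters on recovered sequencing chips by microscopy, with normalized cluster intensities fitted with a binding model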
Given back: 465

---

# System: MS2 coat protein
# Assay Overview: apparent KD of MS2 coat protein; higher = weaker reporter binding
# Condition: Eterna round: R107; input ligand: theophylline 20 uM
Assign 1.0 whenever apparent KD of MS2 coat protein does not fall below 0.05 µM; assign 0.0 whenever it does.

Asked: Does apparent KD of MS2 coat protein meet or surpass 0.05 µM for GAAUUUUAUUGAAGGAGCGUCGAAAAUGGGUAAACAUGAGGAUCACCCAUGUAAAGGGAACGACAGGUAGGUCGCAAUAGGAUUC [AstromonsSSArgB#28] ?
Given back: 1.0

Asked: Does apparent KD of MS2 coat protein meet or surpass 0.05 µM for GGCUACAUGAGGAUCACCCAUGUUUCUCGUCGAGGACCGGUACGGCCGCCACUCGUUGUUGGGACUCAGUAUCAGUCGUUAGUUU [theeternabot_sameState_MS2_Trp_A_36] ?
Given back: 0.0

Asked: Does apparent KD of MS2 coat protein meet or surpass 0.05 µM for GGGCCCGGGCGCGAGCCCGGGCCCAUUGAUACCAGUGAAUGUGUGCGCCCUUGGCAGCGAAUCCUAACAUGAGGAUCACCCAUGU [5.E] ?
Given back: 1.0

Asked: Does apparent KD of MS2 coat protein meet or surpass 0.05 µM for GGCAAGCGAGACAUGAGGAUCACCCAUGUUCGAGGACCGGUACGGCCGCCACUCGGUGGACUCAUGGUAAAGCCGGUGAGCCAAA [AK 1 SS Trypt (A)] ?
Given back: 0.0

Asked: Does apparent KD of MS2 coat protein meet or surpass 0.05 µM for GCCGGGCCUUCGGCCGCCACUGAGAGAGUCGUGUGAACAUGAGGAUCACCCAUGUAAUAUAUAUACAGGACCGGGAGGGCCCGGC [4.V] ?
Given back: 0.0

Asked: Does apparent KD of MS2 coat protein meet or surpass 0.05 µM for UGACAUUGCUCAGAUACCAGACAUGAGCAUCAGCCAUGUGCCAACAAGUACAAAAUAAAAGUCCCUUGGCAGCUGAGCAAUGUCU [TheoBX 21 #MS2Left #AlternativeMS2 #Theo2] ?
Given back: 0.0

Asked: Does apparent KD of MS2 coat protein meet or surpass 0.05 µM for ACAUGAGGAUCACCCAUGUAAUAAUCAGAAGGAGCGUGGAAUAACACAGGUAGGUCGCUGAUGUUUUGUUAAAAUUAUUCGUGAA [JR_SSArginiA_Sub002] ?
Given back: 0.0

Asked: Does apparent KD of MS2 coat protein meet or surpass 0.05 µM for UGUAUGGACUGAAGGAGCGGGUUGAUAACCUGAGGAUCACCCAGGUAAAAGGCGAAAGCCACCCAGGUAGGUCGCAGUCCAUACU ?
Given back: 0.0

New cases:
Asked: Does apparent KD of MS2 coat protein meet or surpass 0.05 µM for AGAUGAGUCACGGCCGCCACUCACUACAGGUUCACCCUUGGUUAACAUGAGGAUCACCCAUGUGGGAGGACCGGGUGAUGAGCAU [XTryp B #4] ?
Given back: 0.0

Asked: Does apparent KD of MS2 coat protein meet or surpass 0.05 µM for GAAUAUUACAUGAGGAUCACCCAUGUAGAUACCAGCCUUGAUUGUGGCCCUUGGCAGCUACGCCGUGAAUGCCUCAGUUGCUUAC [Atidi] ?
Given back: 1.0

Asked: Does apparent KD of MS2 coat protein meet or surpass 0.05 µM for GGGUACAUCGCGGCCGCCACUUGUGUAAAUACAUGAGGAUCACCCAUGUCGAUGGAGACAUCGGCAAGGACCGGGUGAUGUACCG ?
Given back: 1.0

Asked: Does apparent KD of MS2 coat protein meet or surpass 0.05 µM for AGAAUAACAUGAGCAAAGCUCAUGUGCGAAGGAGCGGCGGAAACGCCAGGUAGGUCGCGCACAUGAGCAUCAGCCAUGUGUACCA [Omei Arginine B SS A v5] ?
Given back: 1.0

Asked: Does apparent KD of MS2 coat protein meet or surpass 0.05 µM for ACACGGGCAUGAGGAUCACCCAUGUAAUAACGAGGACCGGUACGGCCGCCACUCGUGCACCGUGACCUGUACGAAAAGUGCAGGA ?
Given back: 0.0

Asked: Does apparent KD of MS2 coat protein meet or surpass 0.05 µM for GGGUACAUCGCGGCCGCCACUGGUGUAAAUACAUGAGGAUCACCCAUGUCGAUGGAGACAUCGGGUAGGACCGGGUGAUGUACCG ?
Given back: 0.0

Asked: Does apparent KD of MS2 coat protein meet or surpass 0.05 µM for CUGGACAUGAGGAUCACCCAUGUAAAUCCUCGAGGACCGGUACGGCCGCCACUCGAACGAGUGGCACGCGAGUGCGCACUCGCGU [aLa] ?
Given back: 0.0

Asked: Does apparent KD of MS2 coat protein meet or surpass 0.05 µM for AGCAGCUCGAAAGAGUUGCACUCAUGUGAAGGAGCGCGCGUUAGCGCAGGUAGGUCGCACAUGAGGAUCACCCAUGUACCUUCUA [MAT - Exclusion Arginine A - Mod of Eli - D15] ?
Given back: 1.0

Asked: Does apparent KD of MS2 coat protein meet or surpass 0.05 µM for UCCUCCUCCGCAAGGAGGAGGAGUUGCGAUACCAGCACGGCAACGUGCCCUUGGCAGCGCACAUGAGGAUCACCCAUGUCAUGUU [#1 Exclusion - Theophylline A Attempt #10 (HarryS)] ?
Given back: 0.0
